# test_system: T1, recombinant human wild type EGFR protein (extracellular domain), denatured (human, UniProt P00533 25-645)
# T1 construct: Same protein as m23 after 95 C for 5 min in PBS with 40 mM DTT (denatured, reduced); also called wt EGFR Denatured
# experimental_details: ELISA Exp 1, mAb supernatant
# cutoff 0.04 A405 applies to ELISA absorbance 405 nm; >= gives Condition met, < gives Condition not met

- binder: "F265-9C9 (antibody, V domains shown, Mouse hybridoma mAb) VH: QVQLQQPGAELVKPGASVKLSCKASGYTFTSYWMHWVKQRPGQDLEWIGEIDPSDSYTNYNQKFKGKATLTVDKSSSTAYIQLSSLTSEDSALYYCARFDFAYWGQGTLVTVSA VL: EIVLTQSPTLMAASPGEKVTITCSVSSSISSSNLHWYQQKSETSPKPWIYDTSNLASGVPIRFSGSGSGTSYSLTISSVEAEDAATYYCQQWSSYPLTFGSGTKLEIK"
  category: "Condition met"
- binder: "F266-11B1 (antibody, V domains shown, Mouse hybridoma mAb) VH: QIQLVQSGPELKKPGETVKISCKASGYTFTTAGMQWVKKMPGKGFKWIGWINTHSGDPKYAEDFKGRFAFSLETYASTAYLQISNLKNEDTASYFCARTHIYDGYNYAMDYWGQGTSVTVSS VL: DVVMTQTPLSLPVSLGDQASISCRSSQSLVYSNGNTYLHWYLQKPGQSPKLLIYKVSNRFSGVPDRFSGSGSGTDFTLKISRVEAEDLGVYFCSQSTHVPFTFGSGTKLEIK"
  category: "Condition not met"
- binder: "F266-11C8 (antibody, V domains shown, Mouse hybridoma mAb; also called 11H5 (11C8)) VH: QIQLVQSGPELKKPGETVKISCKASGYTFTTAGMQWVQKMPGKGFKWIGWINTHSGDPKYAEDFKGRFAFSLETYASTAYLQISNLKNEDTASYFCARTHIYDGYNYAMDYWGQGTSVTVSS VL: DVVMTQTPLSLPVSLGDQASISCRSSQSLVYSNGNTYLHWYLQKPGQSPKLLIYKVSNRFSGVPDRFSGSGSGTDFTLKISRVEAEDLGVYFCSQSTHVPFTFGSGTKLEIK"
  category: "Condition not met"
- binder: "F263-5D8 (antibody, V domains shown, Mouse hybridoma mAb) VH: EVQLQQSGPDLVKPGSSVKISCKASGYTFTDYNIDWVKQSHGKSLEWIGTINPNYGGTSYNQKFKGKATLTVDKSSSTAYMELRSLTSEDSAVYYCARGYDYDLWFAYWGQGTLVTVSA VL: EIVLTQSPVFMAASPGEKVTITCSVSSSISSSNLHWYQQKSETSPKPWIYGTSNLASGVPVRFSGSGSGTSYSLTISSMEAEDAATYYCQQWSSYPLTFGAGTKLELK"
  category: "Condition met"
- binder: "F263-4E11 (antibody, V domains shown, Mouse hybridoma mAb) VH: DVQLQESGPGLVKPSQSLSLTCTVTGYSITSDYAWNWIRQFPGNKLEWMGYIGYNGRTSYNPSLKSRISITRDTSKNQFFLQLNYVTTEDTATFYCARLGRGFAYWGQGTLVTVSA VL: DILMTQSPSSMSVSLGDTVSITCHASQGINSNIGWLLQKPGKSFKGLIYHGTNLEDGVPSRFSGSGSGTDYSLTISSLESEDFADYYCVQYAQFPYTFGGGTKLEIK"
  category: "Condition not met"
